- System: MDA-MB-435
- experiment.summary: Cytotoxicity against human MDA-MB-435 cells assessed as growth inhibition
- Assay type: functional, cell-based
- conditions: read-out: pIC50 (converted)
recorded.endpoint: IC50
Answer shape: numeric part, then the unit.

Output measured IC50 for this item: CCOC(=O)c1[nH]c(Br)c(-c2ccc(OC(F)(F)F)cc2)c1Br 1700 nM

Output measured IC50 for this item: CCOC(=O)c1[nH]c(Br)c(-c2ccc(SC)cc2)c1Br 631 nM

Output measured IC50 for this item: CCOC(=O)c1[nH]c(Br)c(-c2c[nH]c3ccccc23)c1Br 2000 nM

Output measured IC50 for this item: CCOC(=O)c1[nH]c(Br)c(-c2ccc(OC)c(F)c2)c1Br 537 nM

Output measured IC50 for this item: CCOC(=O)c1[nH]c(Br)c(-c2cccc(OC)c2)c1Br 631 nM

Output measured IC50 for this item: COc1ccc(C(=O)c2[nH]c(C(=O)c3ccc(OC)cc3)c(-c3ccc(OC)cc3)c2-c2ccc(OC)cc2)cc1 100000 nM

Output measured IC50 for this item: CCOC(=O)c1[nH]c(Br)c(-c2ccc3c(c2)OCCO3)c1Br 4370 nM

Output measured IC50 for this item: CCOC(=O)c1cc(-c2ccc(OC)cc2)c(C(=O)c2ccc(OC)cc2)[nH]1 3020 nM

Output measured IC50 for this item: CCOC(=O)c1[nH]c(C(=O)c2ccc(OC)cc2)c(-c2ccc(OC)cc2)c1Br 100000 nM

Output measured IC50 for this item: CCOC(=O)c1[nH]c(Br)c(-c2ccc(Cl)c(Cl)c2)c1Br 813 nM

Output measured IC50 for this item: CCOC(=O)c1[nH]c(Br)c(-c2cc(OC)c(OC)cc2Br)c1Br 2630 nM

Output measured IC50 for this item: CCOC(=O)c1[nH]c(Br)c(-c2ccccc2)c1Br 10200 nM

Output measured IC50 for this item: CCOC(=O)c1[nH]c(Br)c(-c2cccc3ccccc23)c1Br 3240 nM

Output measured IC50 for this item: COc1cccc(N(C)c2nc(C)nc3c2C[C@@H](C)C3)c1 398 nM

Output measured IC50 for this item: CCOC(=O)c1c[nH]c(C(=O)c2ccc(OC)cc2)c1-c1ccc(OC)cc1 100000 nM
